TARGET_SYSTEM: Mitogen-activated protein kinase 9 (Homo sapiens)
Sequence (P45984 whole entry, the tested form may be a part): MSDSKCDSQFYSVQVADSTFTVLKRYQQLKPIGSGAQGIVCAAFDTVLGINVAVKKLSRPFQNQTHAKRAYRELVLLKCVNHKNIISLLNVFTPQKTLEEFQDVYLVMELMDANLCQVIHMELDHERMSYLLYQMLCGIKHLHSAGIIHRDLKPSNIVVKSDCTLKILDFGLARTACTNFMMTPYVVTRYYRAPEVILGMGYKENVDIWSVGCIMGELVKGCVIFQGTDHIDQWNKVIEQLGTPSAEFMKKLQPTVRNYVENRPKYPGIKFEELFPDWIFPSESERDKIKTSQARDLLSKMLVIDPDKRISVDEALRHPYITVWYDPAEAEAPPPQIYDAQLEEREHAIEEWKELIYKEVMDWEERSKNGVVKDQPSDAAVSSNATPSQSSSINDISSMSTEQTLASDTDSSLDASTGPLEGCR
EXPERIMENTAL_DETAILS: Inhibition of His6-tagged JNK2 (unknown origin) assessed as reduction in c-Jun phosphorylation using GST-c-Jun (1 to 79 residues) and [gamma32P]ATP incubated for 1 hr by scintillation counting assay
Listed here: items and their measured IC50.

# COMPOUND_STRUCTURE_STRING, IC50
measured = [
    ("O=C(/C=C/c1ccccc1)Nc1cccc(-c2n[nH]c3ccc(-c4nc[nH]n4)cc23)c1", "1 to 10 µM"),
    ("CN(C)Cc1n[nH]c(-c2ccc3[nH]nc(-c4cccc(C(=O)NC5CC5)c4)c3c2)n1", "0.5 to 10 µM"),
    ("O=C(Nc1cccc(-c2n[nH]c3ccc(-c4nc[nH]n4)cc23)c1)c1ccc(Cl)cc1", "1 to 10 µM"),
    ("Fc1ccc(-c2n[nH]c3ccc(-c4nn[nH]n4)cc23)cc1", "0.5 to 10 µM"),
    ("CN(C)Cc1nc(-c2ccc3[nH]nc(-c4cccc(NC(=O)c5cccnc5)c4)c3c2)n[nH]1", "0.5 to 10 µM"),
]

Request: What value of measured IC50 is listed for `CC(=O)NCCOc1cccc(-c2n[nH]c3ccc(-c4ncn[nH]4)cc23)c1` ?
Response: 1 to 10 µM

Request: Return reported IC50; argument: `NC(=O)c1ccc2[nH]nc(-c3cccc(C(=O)NCCN4CCCCC4)c3)c2c1`
Response: 1 to 10 µM

Request: What value of measured IC50 is listed for `c1cc(OCCN2CCOCC2)cc(-c2n[nH]c3ccc(-c4ncn[nH]4)cc23)c1` ?
Response: 1 to 10 µM

Request: I have this molecule here, `O=C(Nc1cccc(-c2n[nH]c3ccc(-c4nc[nH]n4)cc23)c1)C(=O)c1ccccc1` , and I need its recorded IC50.
Response: 1 to 10 µM

Request: Please look up its IC50: `Fc1ccc(-c2n[nH]c3ccc(-c4n[nH]c(CN5CCOCC5)n4)cc23)cc1`
Response: 1 to 10 µM

###

TARGET_SYSTEM: Mitogen-activated protein kinase 9 (Homo sapiens)
EXPERIMENTAL_DETAILS: Inhibition of His6-tagged JNK2 (unknown origin) assessed as reduction in c-Jun phosphorylation using GST-c-Jun (1 to 79 residues) and [gamma32P]ATP incubated for 1 hr by scintillation counting assay
pIC50: −log10 of the molar value.
# Lookup of reported pIC50 keyed by entry

# COMPOUND_STRUCTURE_STRING, TARGET_SYSTEM, pIC50
rows = [
    ("COC(=O)c1ccc2[nH]nc(-c3cc4ccccc4s3)c2c1", "Mitogen-activated protein kinase 9 (Homo sapiens)", "≥ 5.00"),
    ("Cc1nnc(-c2ccc3[nH]nc(-c4ccc(F)cc4)c3c2)o1", "Mitogen-activated protein kinase 9 (Homo sapiens)", "5.00 to 6.00"),
    ("NC(=O)c1ccc2[nH]nc(-c3cccc(NC(=O)c4cccnc4)c3)c2c1", "Mitogen-activated protein kinase 9 (Homo sapiens)", "5.00 to 6.00"),
    ("O=C(Nc1ccc2[nH]nc(-c3ccc(F)cc3)c2c1)c1cccnc1", "Mitogen-activated protein kinase 9 (Homo sapiens)", "5.00 to 6.00"),
    ("O=C(Nc1ccncc1)c1ccc2[nH]nc(-c3ccc(F)cc3)c2c1", "Mitogen-activated protein kinase 9 (Homo sapiens)", "5.00 to 6.00"),
]

Request: Reported pIC50, molecule `CCOc1cccc(-c2n[nH]c3ccc([N+](=O)[O-])cc23)c1` : ____
Response: ≥ 5.00

Request: Which value of pIC50 has been reported for `O=C(CCN1CCCCC1)Nc1cccc(-c2n[nH]c3ccc(-c4nc[nH]n4)cc23)c1` in the records?
Response: 5.00 to 6.00

Request: Item under review: `NC(=O)c1ccc2[nH]nc(-c3cccc(NC(=O)Cc4ccc(Cl)cc4)c3)c2c1` . Reported pIC50?
Response: 5.00 to 6.00

Request: Query (molecule): `NC(=O)c1ccc2[nH]nc(-c3cccc(NC(=O)Cc4ccc(C(F)(F)F)cc4)c3)c2c1` ; field requested: pIC50
Response: 5.00 to 6.00

Request: May I ask what pIC50 has been recorded for `CN(C)Cc1nc(-c2ccc3[nH]nc(-c4ccc5c(c4)OCO5)c3c2)n[nH]1` ?
Response: 5.00 to 6.30
